- Test system: E. faecalis (ATCC 29212)
- assay-details: microbe, parasite or virus in culture
- Format: cell-based
- measurement-context: Enterococcus faecalis, ATCC29212; 16 h at 37 °C; read-out: MIC E. faecalis
Entries annotated with measured MIC
Supply the numeric figure in µM, leaving out any unit text.

Before answering, review these 2 worked examples.
{"molecule": "CCCCCCCCCCCCO[C@@H]1C[C@@H](O)[C@H](O)[C@@H](C)O1", "readout-type": "MIC", "unit-annotation": "µM", "quantitative-readout": 50}
{"molecule": "CCCCCCCCCCCCO[C@@H]1C[C@H](O)[C@@H](O)[C@H](C)O1", "readout-type": "MIC", "unit-annotation": "µM", "quantitative-readout": 101}

Please supply the value of reported MIC for the item CCCCCCCCCCCCS[C@@H]1C[C@@H](O)[C@H](O)CO1
50

Please supply the value of reported MIC for the item CCCCCCCCCCCC[C@@H]1C[C@@H](O)[C@H](O)[C@@H](CO)O1
51

Please supply the value of reported MIC for the item CCCCCCCCCCCCO[C@H]1C[C@@H](O)[C@H](O)CO1
52

Please supply the value of reported MIC for the item CCCCCCCCCCCCO[C@H]1O[C@H](C)C[C@H](O)[C@H]1O
12.6

Please supply the value of reported MIC for the item O=C(N[C@H](CO)[C@H](O)c1ccc([N+](=O)[O-])cc1)C(Cl)Cl [Chloramphenicol, reference compound]
19
